Entries and their GI50
Test system: HOP-62 NSCLC
measurement.description: NCI tumour cell line growth inhibition, 48 h

// solved cases for GI50 follow
In: Lab note: need GI50 for Cc1ccccc1C1N=C2Oc3ccccc3C=C2C(=O)N1 (stereo not drawn) on HOP-62 NSCLC, anyone have it?
Out: 3.39 µM

In: Lab note: need GI50 for `O=C(CNC(=O)c1cccc2ccccc12)Nc1ccccc1Oc1ccc(O)cc1` on HOP-62 NSCLC, anyone have it?
Out: 1.35 µM

In: Lab note: need GI50 for `CCOc1ccc(-c2nc3ccc(-c4nc5ccc(N6CCN(C)CC6)cc5[nH]4)cc3[nH]2)cc1OCC` on HOP-62 NSCLC, anyone have it?
Out: 2.86 µM

***
In: Lab note: need GI50 for `O=c1c2cc(F)ccc2sc2c(NCCCNCCO)nc3ccc(F)cc3c12` on HOP-62 NSCLC, anyone have it?
Out: 1.61 µM

In: Lab note: need GI50 for `C=C(C)[C@@H]1CC[C@]2(C(=O)OC)CC[C@]3(C)[C@H](CC[C@@H]4[C@@]5(C)CC/C(=N\OCCC(=NCCC#N)NOCCC#N)C(C)(C)[C@@H]5CC[C@]43C)[C@@H]12` on HOP-62 NSCLC, anyone have it?
Out: 12.5 µM

In: Lab note: need GI50 for COc1ccc2c(c1)OCC1c3cc(OC)ccc3OC21 (stereo not drawn) on HOP-62 NSCLC, anyone have it?
Out: 95 µM

In: Lab note: need GI50 for `CCN(CC)c1ccc(C=C2C(=O)NC(=S)NC2=O)cc1` on HOP-62 NSCLC, anyone have it?
Out: 5.7 µM

In: Lab note: need GI50 for `CCC[CH2][Sn]1([CH2]CCC)[O]C(=O)c2cccnc2[S]1` on HOP-62 NSCLC, anyone have it?
Out: 28.9 µM

----------
Entries and their TGI
Test system: RPMI-8226 leukemia
measurement.description: NCI tumour cell line growth inhibition, 48 h

In: Data request, read-out TGI, for CC(=O)Nc1ccc(S(=O)(=O)N2C(=O)CCC2C(=O)Nc2ccccc2)cc1 (stereo not given)
Out: 15 µM

***
In: Data request, read-out TGI, for CCCN1CCCC(c2ccc(Nc3nc(Nc4cc(F)ccc4C(N)=O)c4cc[nH]c4n3)c(OC)c2)C1 (stereo not given)
Out: 10.8 µM

In: Data request, read-out TGI, for `CCOc1cc(NC(C)=O)ccc1C(=O)NN1C(=O)/C(=C/c2ccc(Cl)cc2)N=C1c1ccccc1`
Out: > 100 µM

In: Data request, read-out TGI, for `COc1cc(Nc2nc(NS(=O)(=O)c3cc(C)c(Cl)cc3S)n[nH]2)cc(OC)c1OC`
Out: > 100 µM

In: Data request, read-out TGI, for `Nc1nc(-c2ccccn2)c(-c2ccc3ncccc3n2)s1`
Out: > 25 µM

In: Data request, read-out TGI, for O=c1ccn([C@@H]2C[C@H](CO)CS(=O)C2)c(=O)[nH]1 (stereo not given in full)
Out: > 100 µM

In: Data request, read-out TGI, for `CCOC(=O)c1c2ccccc2n2c(=O)n(-c3ccccc3)nnc12`
Out: > 100 µM

In: Data request, read-out TGI, for CC(=O)OC(C(=O)NNC(=O)OC(C)(C)C)c1ccccc1 (stereo not given)
Out: > 100 µM

In: Data request, read-out TGI, for `Cc1nnc(NS(=O)(=O)c2ccc(N=Nc3c(O)c(C(=O)O)cc4ccccc34)cc2)s1`
Out: > 100 µM

In: Data request, read-out TGI, for `COc1ccccc1Nc1nc(N)nc(N)c1N`
Out: 82.7 µM

Recorded values, source PubChem BioAssay (NCI).
